- system_tested: ThnA4 (ThnA4-His6), NAD(P)H-dependent ferredoxin reductase of tetralin dioxygenase (Sphingopyxis macrogoltabida, UniProt Q8GJE9)
- Construct: full length, 339 residues, C-terminal His6 (pET23b, plasmid pMPO784), E. coli NCM631 host; plant-type [2Fe-2S]; FAD-reconstituted
- Sequence (Q8GJE9 entry or part of it): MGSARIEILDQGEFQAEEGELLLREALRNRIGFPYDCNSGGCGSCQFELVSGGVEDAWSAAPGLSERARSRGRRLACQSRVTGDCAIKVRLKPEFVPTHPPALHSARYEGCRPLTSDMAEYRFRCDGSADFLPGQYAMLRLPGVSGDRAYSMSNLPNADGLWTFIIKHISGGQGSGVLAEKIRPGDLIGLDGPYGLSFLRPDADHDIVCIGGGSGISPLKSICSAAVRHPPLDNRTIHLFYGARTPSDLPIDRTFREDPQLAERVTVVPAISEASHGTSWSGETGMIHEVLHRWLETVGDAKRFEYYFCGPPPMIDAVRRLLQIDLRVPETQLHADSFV
- method_summary: stopped-flow pre-steady-state reduction of ThnA4ox, fit of kA→B
- Format: biochemical
- condition_details: oxidized enzyme; potassium phosphate 50 mM pH 7.4, NaCl 10 mM, glycerine 5%, 15 °C; hydride donor; upper limit estimated from saturation profile; read-out: Kd^NADH
quantity_name: Kd

Kindly indicate its recorded Kd. Item: NC(=O)C1=CN([C@@H]2O[C@H](COP(=O)(O)OP(=O)(O)OC[C@H]3O[C@@H](n4cnc5c(N)ncnc54)[C@H](O)[C@@H]3O)[C@@H](O)[C@H]2O)C=CC1
< 400 nM
